Reference for the values: ChEMBL document CHEMBL4513216

assay: Toxicity liver stage against HepG2, at 10uM; format: cell-based; parameters: test concentration 10 uM, cell line HepG2-A16-CD81EGFP; conditions: human, HepG2-A16-CD81EGFP cells; read-out: INHIBITION
measured-parameter: cytotoxicity at 10 µM (%)
Give the value, in units of %, as a plain number.

1) Cc1cc(C(=O)Nc2cc(C3CC3)n[nH]2)c2c(C)nn(C)c2n1 : -2.14

For record CCOc1cc(CN2CCCC2)ccc1Oc1cccc(C#N)n1 the listed cytotoxicity at 10 µM is -1.83

# cytotoxicity at 10 µM of COC(=O)N1CCCCC1C(=O)N1CCN(c2ncccc2C)CC1 (configuration not stated) = 3.37

Input Cc1cnn(CC(=O)NCC2(O)CCCc3ccccc32)c1 (configuration not stated) . Output cytotoxicity at 10 µM: -38

Reported cytotoxicity at 10 µM for c1cnc(N2CCC(OCC3CCCCO3)CC2)nc1 (configuration not stated) was -11.4

compound CCc1ncncc1C(=O)NCCNC(=O)c1ccc(C)c(F)c1 , cytotoxicity at 10 µM observed: 7.67
